Numbers sourced from patent US8153795B2.

In this section, each of the compounds is paired with its reported inhibition at 10 µM.
Target: NA transporter (Rattus norvegicus, UniProt Q63380)
Construct: from tissue; host or cells: rat brain synaptosomes (P2 fraction) from hypothalamus
Sequence (Q63380 1-617): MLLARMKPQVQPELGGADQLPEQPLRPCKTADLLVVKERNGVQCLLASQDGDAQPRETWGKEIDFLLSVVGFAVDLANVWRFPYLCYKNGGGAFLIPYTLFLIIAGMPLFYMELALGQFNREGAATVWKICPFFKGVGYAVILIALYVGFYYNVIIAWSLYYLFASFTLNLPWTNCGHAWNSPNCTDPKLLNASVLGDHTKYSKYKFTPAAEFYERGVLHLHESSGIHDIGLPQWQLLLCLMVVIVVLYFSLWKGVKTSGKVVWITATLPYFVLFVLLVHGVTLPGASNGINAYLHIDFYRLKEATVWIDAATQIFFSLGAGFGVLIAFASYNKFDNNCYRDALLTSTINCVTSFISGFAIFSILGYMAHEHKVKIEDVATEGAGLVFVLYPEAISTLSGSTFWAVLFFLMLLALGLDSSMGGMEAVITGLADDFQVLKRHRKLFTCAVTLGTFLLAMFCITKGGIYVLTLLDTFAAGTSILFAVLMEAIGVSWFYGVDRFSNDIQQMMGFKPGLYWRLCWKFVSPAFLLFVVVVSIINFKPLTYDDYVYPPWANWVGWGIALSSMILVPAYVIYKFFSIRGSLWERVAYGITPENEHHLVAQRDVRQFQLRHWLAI
Test: noradrenalin uptake inhibition in rat brain synaptosomes (hypothalamus), [3H]-NA
Type: biochemical
Quick note: give the figure in %, leave out the unit.

{"Compound": "COc1ccc(NC(=O)N2CCC3(CC2)CN(Cc2ccccc2)C(=O)O3)cc1 [Example 39]", "inhibition at 10 µM (%)": 76}

# input compound: COc1cc(OC)cc(C(=O)N2CCC3(CC2)CN(Cc2cccc(Br)c2)C(=O)O3)c1 [Example 137] ; wanted: its inhibition at 10 µM
84

Next entry: CCOc1ccc(C(=O)N2CCC3(CC2)CN(Cc2ccc(C)cc2)C(=O)O3)cc1 [Example 92]
73

Next entry: N#Cc1cccc(CN2CC3(CCN(C(=S)Nc4cccc(C(F)(F)F)c4)CC3)OC2=O)c1 [Example 15]
55

Next entry: COc1ccc([N+](=O)[O-])cc1CN1CC2(CCN(C(=O)NC(C)c3cccc4ccccc34)CC2)OC1=O (stereo not shown) [Example 63]
41

Next entry: Cc1ccc(CN2CC3(CCN(CC(=O)Nc4ccc(S(=O)(=O)Nc5cc(Cl)cc(Cl)c5)cc4)CC3)OC2=O)cc1 [Example 75]
67

Next entry: COc1ccccc1NC(=S)N1CCC2(CC1)CN(Cc1cccc(Br)c1)C(=O)O2 [Example 6]
56
